# Tested on: DMS-273
# experiment: NCI tumour cell line growth inhibition, 48 h
Calls of active or inactive are those of the source. Rule as the data show it: active = GI50 up to about 1.1 µM and inactive = higher.
In this exercise, the only acceptable responses are active, inactive

CC1=N/C(=C\c2ccc(N)cc2)C(=O)N1Nc1nnc(NN2C(=O)/C(=C/c3ccc(N)cc3)N=C2C)c2ccccc12 ... inactive
CCOC(=O)Cc1cc(OC)c(OC)cc1/C(Cl)=C(\C=O)c1ccc(OC)c(OC)c1 ... inactive
COc1cc2cc(OC(C)=O)c3cc4c(cc3c2c(OC)c1OC)OCO4 ... inactive

Below: the item to evaluate.
Asked: Per the records of this test, what outcome belongs to N=c1nc(N)c2cc3c(N)nc(=N)c3cc12 ?
Given back: inactive

---

# System: HCT-15
measured_endpoint: log10 of GI50 (log10 of the value in µM)
Hey, these are logged values: log10 of GI50, µM being the unit before logging.

CCOc1ccc(N/C(Cl)=C(Cl)\C(=C(\Nc2ccc(OCC)cc2)n2nnc3ccccc32)[N+](=O)[O-])cc1 ... 0.28
Oc1cc(-c2ccc3ccccc3c2)nc2ncc(Cl)cc12 ... 0.55

Here are 3 compounds. What values of log10 of GI50 were reported for them?
1. CCCOC(=O)NC(C)C(=O)NC(CCC(=O)NC(CCCC(N)C(=O)O)C(=O)NC(C)C(=O)O)C(=O)O (stereo not given)
2. O=C1c2ccccc2C(=O)c2sc(Nc3ccc(Cl)c(Cl)c3)nc21
3. Cc1ccc(C2=C(c3ccccc3)C(O)(c3ccccc3)C(c3ccccc3)=C2c2ccc(C)cc2)cc1

Given back:
[1.26, 0.35, 1.55]

---

# Tested on: SF-539
# experiment: NCI tumour cell line growth inhibition, 48 h
The source made the active and inactive calls. Rule as the data show it: active = GI50 up to about 1.1 µM and inactive = higher.
Provide the recorded GI50 for the entries that follow.

Below: 5 compounds and their reported GI50.
Cc1cccc(NC(=O)CC#N)c1Cl ... > 100 µM (inactive)
CSc1nc2c(c(O)c(C)c(=O)n2C2OC(COC(C)=O)C(OC(C)=O)C(OC(C)=O)C2OC(C)=O)c(=O)n1C (stereo not drawn) ... > 100 µM (inactive)
COC1(OC)CCCCCCCCC(OC)(OC)CCCCCCCC1 ... > 100 µM (inactive)
Cc1cn(C2OC(CO[Si](C)(C)C(C)(C)C)/C(=C\C#N)C2O[Si](C)(C)C(C)(C)C)c(=O)[nH]c1=O (stereo not drawn) ... 6.75 µM (inactive)
O=C1[C@@H](c2ccc(Cl)cc2)[C@H]2CC=C[C@H]2N1O ... > 100 µM (inactive)

Required: GI50, one value per compound below.
1. O=[N+]([O-])c1ccccc1[S+]([O-])c1ccccc1 (stereo not drawn)
2. CC1(C=O)C(=O)CCC2(C)C3CC(=O)OC3CCC12 (stereo not drawn)
3. Cc1ccccc1NC(=O)C1C(=O)N(c2ccccc2C)C(=O)/C1=N\N (stereo not drawn)
4. CC1(C)O[C@H]2[C@H](O)C[C@](O)(CO)C[C@H]2O1
5. CC1(C)C(c2ccccc2)C12CCC1(C2=O)C(c2ccccc2)C1(C)C (stereo not drawn)
6. CC(C)(C)c1cc(-c2c3nc(c(-c4cc(C(C)(C)C)cc(C(C)(C)C)c4)c4ccc([nH]4)c(-c4cc(C(C)(C)C)cc(C(C)(C)C)c4)c4nc(c(-c5cc(C(C)(C)C)cc(C(C)(C)C)c5)c5ccc2[nH]5)C=C4)C=C3)cc(C(C)(C)C)c1

Given back:
1. 70.6 µM (inactive)
2. > 100 µM (inactive)
3. > 100 µM (inactive)
4. > 100 µM (inactive)
5. 26.8 µM (inactive)
6. > 100 µM (inactive)

Please give GI50 for each item listed below.
1. O=C(NC(Cc1c[nH]c2ccccc12)C(=O)O)/C(=C/c1ccccc1O)NC(=O)c1ccccc1 (stereo not drawn)
2. CCc1ccc(CCC(=O)O)nc1

Given back:
1. 16.1 µM (inactive)
2. > 100 µM (inactive)
